Kindly return MET if reported glass transition temperature is no lower than 100 °C; return NOT MET if it is lower.

| Compound | Class name |
| --- | --- |
| */C=C/c1sc(-c2ccc(-c3sc(/C=C/C4=CC(=C(C#N)C#N)C=C(*)O4)c(CCCCCC)c3CCCCCC)s2)c(CCCCCC)c1CCCCCC (repeat unit) | MET |
| *O[Si](C)(C)O[Si](C)(C)O[Si](C)(C)O[Si](C)(C)O[Si](C)(C)OC(C)CCCCC(*)C (repeat unit) | NOT MET |
| *c1ccc(Sc2ccc(-c3nn(-c4ccc(S(=O)(=O)c5ccc(-n6nc(*)c7ccccc7c6=O)cc5)cc4)c(=O)c4ccccc34)cc2)cc1 (repeat unit) | MET |
| *O[Si](*)(C)CCCC(=O)OCCO (repeat unit) | NOT MET |
| *Nc1cccc(NC(=O)CCCCC(=O)Nc2ccc(C(=O)NC(*)=S)cc2)c1 (repeat unit) | MET |
| *Cc1ccccc1C[n+]1ccc(-c2cc[n+](*)cc2)cc1 (repeat unit) | NOT MET |
| *O[Si](*)(C)CCCCCCCCCCCOc1ccc(-c2ccc(C(=O)Oc3ccc(C(=O)OC(C)C(=O)OC(C)C(=O)OC(C)C(=O)OCC(C)CC)cc3)cc2)cc1 (repeat unit) | NOT MET |
| *c1ccc(C(=O)Nc2cccc(-n3c(=O)c4cc5c(=O)n(*)c(=O)c5cc4c3=O)c2)cc1 (repeat unit) | MET |
| *CC(CS(=O)(=O)CCCC)O* (repeat unit) | NOT MET |
| *c1ccc(-n2ccc(-c3cccc(-c4ccn(*)n4)c3)n2)cc1 (repeat unit) | NOT MET |

Req: Threshold query (glass transition temperature >= 100 °C) on *C(F)(F)C1(F)C(F)(F)C(*)(F)C(F)(F)C1(F)F (repeat unit)
Resp: MET

Req: Threshold query (glass transition temperature >= 100 °C) on *C(=O)c1ccc2c(c1)C(=O)N(c1cccc(C(=O)Nc3cccc(N4C(=O)c5ccc(*)cc5C4=O)c3)c1)C2=O (repeat unit)
Resp: MET

Req: Threshold query (glass transition temperature >= 100 °C) on *c1ccc(-c2ccc(N3C(=O)c4ccc(-c5ccc6c(c5)C(=O)N(*)C6=O)cc4C3=O)c(C)c2)cc1C (repeat unit)
Resp: MET

Req: Threshold query (glass transition temperature >= 100 °C) on *CCCCCCOC(=O)OCCOC(=O)OCCCCCCOc1ccc(C(=O)c2ccc(O*)cc2)cc1 (repeat unit)
Resp: NOT MET

Req: Threshold query (glass transition temperature >= 100 °C) on *c1ccc2c(c1)C(=O)N(c1cccc(C(=O)Nc3ccc(NC(=O)c4ccc(NC(=O)c5cccc(N6C(=O)c7ccc(C(*)(C(F)(F)F)C(F)(F)F)cc7C6=O)c5)cc4)cc3)c1)C2=O (repeat unit)
Resp: MET

====

Result type: glass transition temperature (°C)
Give just the number in °C; leave the unit off.

Below: 2 molecules and their reported glass transition temperature.
| Molecule | Reported value |
| --- | --- |
| *c1ccc(-c2cc(C(C)(C)C)c(Oc3ccc(-n4c(=O)c5cc6c(=O)n(*)c(=O)c6cc5c4=O)cc3C(F)(F)F)c(C(C)(C)C)c2)cc1 (repeat unit) | 420.00 |
| *CC1CCC(COC(C)OC(=O)c2ccc(C(=O)OC(C)O*)c3ccccc23)CC1 (repeat unit) | 60.00 |

Could you now look at the following molecule, please?
glass transition temperature reading for *Oc1cc(OC(=O)c2ccc(Oc3ccc(C4(c5ccc(Oc6ccc(C(*)=O)cc6)cc5)CCC(C(C)(C)C)CC4)cc3)cc2)ccc1C12CC3CC(CC(C3)C1)C2 (repeat unit) : 180.00
